# Test system: HT29 colon
# procedureText: NCI tumour cell line growth inhibition, 48 h

>  <compound>
CCc1ccccc1NC(=O)C1=C(C)NC(C)=C(C(=O)Nc2ccccc2CC)C1c1ccc2c(c1)OCO2

>  <TGI>
> 100 µM

$$$$
>  <compound>
O=C(O)CCSC(=O)Nc1ccc([N+](=O)[O-])cc1

>  <TGI>
> 100 µM

$$$$
>  <compound>
O=C(Nc1ccc(-c2nc(N3CCOCC3)c3cccn3n2)cc1)Nc1cccnc1

>  <TGI>
> 100 µM

$$$$
>  <compound>
C[C@]12CC[C@H](OC(=O)Cc3ccc(N(CCCl)CCCl)cc3)CC1=CC[C@@H]1[C@@H]2CC[C@]2(C)C(=O)CC[C@@H]12

>  <TGI>
> 100 µM

$$$$
>  <compound>
OC1(c2ccc(Cl)cc2)C(N2CCCC2)c2ccccc2C2=NCCN21 (stereo not given)

>  <TGI>
32.4 µM

$$$$

* * *

# Tested on: K-562 leukemia
# procedureText: NCI tumour cell line growth inhibition, 48 h
Entries annotated with measured TGI
valueType: TGI

>  <compound>
Nc1c(-c2ccc(Cl)cc2)[n+]([O-])c2ccccc2[n+]1[O-]

>  <observed>
> 100 µM

$$$$
>  <compound>
Cc1ccc(C(=O)N(CCCN)C(c2oc3cc(Cl)ccc3c(=O)c2Cc2ccccc2)C(C)C)cc1 (stereo unspecified)

>  <observed>
1.41 µM

$$$$
>  <compound>
CCOC(=O)c1cc2c([nH]1)c(O)cc1c2ccn1Cc1ccccc1

>  <observed>
25.3 µM

$$$$
>  <compound>
O=S(=O)(SC1=NCCN1)c1ccc2ccccc2c1

>  <observed>
55 µM

$$$$
>  <compound>
Cc1cc(S(=O)(=O)Nc2nc(N)n(-c3ccccn3)n2)c(S)cc1Cl

>  <observed>
> 100 µM

$$$$
>  <compound>
O=C1CSSCC(=O)Nc2ccccc2N1

>  <observed>
> 100 µM

$$$$
>  <compound>
COc1ccc(C(=O)c2sc(N(C)C)nc2-c2ccccc2)cc1

>  <observed>
> 100 µM

$$$$
>  <compound>
O=C(CC1C(=O)NN(c2ccc(Br)cc2)C1=O)c1cc(O)ccc1O (stereo unspecified)

>  <observed>
> 50 µM

$$$$
>  <compound>
OC1(c2ccc(Cl)cc2)C(N2CCCC2)c2ccccc2C2=NCCN21 (stereo unspecified)

>  <observed>
47.5 µM

$$$$
>  <compound>
CC(C)(C)C(=O)OCOP(=O)(OCOC(=O)C(C)(C)C)OCC1OC(n2ccc(=O)[nH]c2=O)C(N=[N+]=[N-])C1O (stereo unspecified)

>  <observed>
> 100 µM

$$$$
>  <compound>
COc1nc(N=P(c2ccccc2)(c2ccccc2)c2ccccc2)cc(=O)[nH]1

>  <observed>
> 100 µM

$$$$
>  <compound>
CCC/C=C/c1cc2c(cc1O)CC[C@@H]1[C@@H]2CC[C@]2(C)[C@@H](O)CC[C@@H]12

>  <observed>
45.5 µM

$$$$
>  <compound>
CN(C)/N=C(/CC(O)(C(F)(F)F)C(F)(F)F)c1ccc([N+](=O)[O-])cc1

>  <observed>
> 100 µM

$$$$
>  <compound>
OC1(c2ccccc2)C2CCN(CC2)C1CN1CCOCC1 (stereo unspecified)

>  <observed>
> 100 µM

$$$$
>  <compound>
CC(C)(CO)N1CCN(C(=S)Nc2ccccc2)CC1

>  <observed>
99.5 µM

$$$$
>  <compound>
O=C1NC(=O)C(CCC(=O)c2ccc3ccccc3c2)C(=O)N1

>  <observed>
> 100 µM

$$$$
